Origin of measurements: ChEMBL document CHEMBL1148816

# TARGET OR TEST SYSTEM: Proteinase-activated receptor 1 (Homo sapiens, UniProt P25116)
# Sequence (P25116 whole entry): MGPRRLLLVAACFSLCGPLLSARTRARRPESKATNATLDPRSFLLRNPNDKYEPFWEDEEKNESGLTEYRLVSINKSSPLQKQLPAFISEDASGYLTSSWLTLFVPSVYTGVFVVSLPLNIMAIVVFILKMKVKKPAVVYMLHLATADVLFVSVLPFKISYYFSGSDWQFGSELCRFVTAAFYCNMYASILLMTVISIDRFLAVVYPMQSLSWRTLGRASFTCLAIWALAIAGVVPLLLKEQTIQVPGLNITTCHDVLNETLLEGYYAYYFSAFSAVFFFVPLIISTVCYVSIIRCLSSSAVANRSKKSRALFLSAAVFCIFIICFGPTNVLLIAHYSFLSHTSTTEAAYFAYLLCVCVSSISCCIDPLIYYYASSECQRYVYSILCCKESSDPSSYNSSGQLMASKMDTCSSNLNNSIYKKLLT
# EXPERIMENT DESCRIPTION: Displacement of [3H]haTRAP from PAR1 in human platelet membrane
VALUE KIND: IC50 (nM)
Give your result in nM as a bare value.

Solved entries:
- C[C@H]1OC(=O)[C@@H]2C[C@@H]3COCC[C@H]3[C@H](/C=C/c3ccc(-c4ccccc4F)cn3)[C@H]12: 25
- C[C@H]1OC(=O)[C@@H]2C[C@@H]3COCC[C@H]3[C@H](/C=C/c3ccc(-c4cccc(F)c4F)cn3)[C@H]12: 26

API: the following record is the query input.
Query block: Consider the molecule CCOC(=O)N1CC[C@@H]2[C@H](C[C@H]3C(=O)O[C@H](C)[C@H]3[C@H]2/C=C/c2ccc(-c3cccc(F)c3)cn2)C1 and give its recorded IC50.
Result block: 10.5

###

# TARGET OR TEST SYSTEM: Proteinase-activated receptor 1 (Homo sapiens, UniProt P25116)
# Sequence (P25116 whole entry): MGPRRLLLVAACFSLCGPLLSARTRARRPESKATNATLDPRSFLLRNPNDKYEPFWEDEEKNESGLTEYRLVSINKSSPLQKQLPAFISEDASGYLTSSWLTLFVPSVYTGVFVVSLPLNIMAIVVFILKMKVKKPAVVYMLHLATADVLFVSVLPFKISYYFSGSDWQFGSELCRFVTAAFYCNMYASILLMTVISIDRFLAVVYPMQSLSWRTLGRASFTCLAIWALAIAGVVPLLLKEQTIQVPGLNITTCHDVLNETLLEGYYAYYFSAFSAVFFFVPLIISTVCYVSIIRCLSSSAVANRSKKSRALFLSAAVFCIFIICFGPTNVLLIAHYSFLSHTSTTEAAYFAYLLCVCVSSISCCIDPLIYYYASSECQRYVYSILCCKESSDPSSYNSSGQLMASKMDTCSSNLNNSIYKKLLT
# EXPERIMENT DESCRIPTION: Displacement of [3H]haTRAP from PAR1 in human platelet membrane
# Type: cell membranes
Okay, here is how we bin by IC50: lowest (below 20 nM), middle (20 nM to below 200 nM), highest (200 nM or more)

* C[C@H]1OC(=O)[C@@H]2C[C@@H]3COCC[C@H]3[C@H](/C=C/c3ccc(-c4cccc(F)c4)cn3)[C@H]12 | middle
* C[C@H]1OC(=O)[C@@H]2C[C@@H]3C[S+]([O-])CC[C@H]3[C@H](/C=C/c3ccc(-c4cccc(C(F)(F)F)c4)cn3)[C@H]12 (single isomer, unassigned; isomer 2) | highest
* C[C@H]1OC(=O)[C@@H]2C[C@@H]3CN(C(=O)OCc4ccccc4)CC[C@H]3[C@H](/C=C/c3ccc(-c4cccc(C(F)(F)F)c4)cn3)[C@H]12 | middle

Query block: Just checking, what class would you give CCOC(=O)N1CCC[C@H]2[C@H](/C=C/c3ccc(-c4ccccc4C)cn3)[C@@H]3[C@@H](C)OC(=O)[C@@H]3C[C@@H]21 here?
Result block: highest

Query block: Just checking, what class would you give C[C@H]1OC(=O)[C@@H]2C[C@@H]3COCC[C@H]3[C@H](/C=C/c3ccc(-c4cccc(Cl)c4Cl)cn3)[C@H]12 here?
Result block: middle

###

This section presents compounds with their documented pIC50 values.
# TARGET OR TEST SYSTEM: Proteinase-activated receptor 1 (Homo sapiens)
# EXPERIMENT DESCRIPTION: Displacement of [3H]haTRAP from PAR1 in human platelet membrane
pIC50 here is simply -log10 of the concentration when that concentration is written in mol/L.

Solved entries:
* COCCOC(=O)N1CC[C@@H]2[C@H](C[C@H]3C(=O)O[C@H](C)[C@H]3[C@H]2/C=C/c2ccc(-c3cccc(F)c3)cn2)C1 | 7.78
* CCOC(=O)N1CC[C@@H]2[C@H](C[C@H]3C(=O)O[C@H](C)[C@H]3[C@H]2/C=C/c2ccc(-c3ccccc3F)cn2)C1 | 8.10
* CCOC(=O)N1CCC[C@H]2[C@H](/C=C/c3ccc(-c4cccc(C#N)c4)cn3)[C@@H]3[C@@H](C)OC(=O)[C@@H]3C[C@@H]21 | 6.53
* C[C@H]1OC(=O)[C@@H]2C[C@@H]3CNCC[C@H]3[C@H](/C=C/c3ccc(-c4cccc(C(F)(F)F)c4)cn3)[C@H]12 | 6.22
* CCOC(=O)N1CC[C@@H]2[C@H](C[C@H]3C(=O)O[C@H](C)[C@H]3[C@H]2/C=C/c2ccc(-c3ccccn3)cn2)C1 | 7.47

API: the following record is the query input.
Query block: Consider the compound CC(C)C(=O)N1CC[C@@H]2[C@H](C[C@H]3C(=O)O[C@H](C)[C@H]3[C@H]2/C=C/c2ccc(-c3cccc(C(F)(F)F)c3)cn2)C1 and give its recorded pIC50.
Result block: 6.95

###

# EXPERIMENT DESCRIPTION: Cmax in cynomolgus monkey at 1 mg/kg, iv and 1.5 mg/kg, po
# Format: ADME, organism-based, Macaca fascicularis
# TEST CONDITIONS: in vivo
VALUE KIND: Cmax (ng/mL)
Give your result in ng/mL as a bare value.

Query block: Consider the compound C[C@H]1OC(=O)[C@@H]2C[C@@H]3COCC[C@H]3[C@H](/C=C/c3ccc(-c4ccccc4F)cn3)[C@H]12 and give its recorded Cmax.
Result block: 610

###

# EXPERIMENT DESCRIPTION: Half life in iv dosed cynomolgus monkey
# Assay type: ADME, organism-based, Macaca fascicularis
# TEST CONDITIONS: in vivo
VALUE KIND: half-life (h)
Give your result in h as a bare value.

Query block: Consider the compound CCOC(=O)N1CC[C@@H]2[C@H](C[C@H]3C(=O)O[C@H](C)[C@H]3[C@H]2/C=C/c2ccc(-c3cccc(F)c3)cn2)C1 and give its recorded half-life.
Result block: 6.2

###

# TARGET OR TEST SYSTEM: Proteinase-activated receptor 1 (Homo sapiens, UniProt P25116)
# Sequence (P25116 whole entry): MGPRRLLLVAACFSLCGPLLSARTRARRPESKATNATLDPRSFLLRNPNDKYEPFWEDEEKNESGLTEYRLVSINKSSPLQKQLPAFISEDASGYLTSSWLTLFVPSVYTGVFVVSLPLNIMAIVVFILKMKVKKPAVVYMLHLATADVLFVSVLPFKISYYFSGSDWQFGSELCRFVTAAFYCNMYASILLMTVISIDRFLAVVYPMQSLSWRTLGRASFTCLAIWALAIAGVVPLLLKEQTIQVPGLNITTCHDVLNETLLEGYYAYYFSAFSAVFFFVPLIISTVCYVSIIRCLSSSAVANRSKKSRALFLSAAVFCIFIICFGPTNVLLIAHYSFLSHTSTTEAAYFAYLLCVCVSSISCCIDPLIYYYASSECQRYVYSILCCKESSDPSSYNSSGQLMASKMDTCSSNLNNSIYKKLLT
# EXPERIMENT DESCRIPTION: Displacement of [3H]haTRAP from PAR1 in human platelet membrane
Label Yes when IC50 is strictly below 20 nM; otherwise label No.

Reference set (4 entries):
* C[C@H]1OC(=O)[C@@H]2C[C@@H]3CSCC[C@H]3[C@H](/C=C/c3ccc(-c4cccc(C(F)(F)F)c4)cn3)[C@H]12 | No
* CC(=O)N1CC[C@@H]2[C@H](C[C@H]3C(=O)O[C@H](C)[C@H]3[C@H]2/C=C/c2ccc(-c3cccc(C(F)(F)F)c3)cn2)C1 | No
* CCOC(=O)N1CC[C@@H]2[C@H](C[C@H]3C(=O)O[C@H](C)[C@H]3[C@H]2/C=C/c2ccc(-c3cccc(C(F)(F)F)c3)cn2)C1 | Yes
* CCNC(=O)N1CC[C@@H]2[C@H](C[C@H]3C(=O)O[C@H](C)[C@H]3[C@H]2/C=C/c2ccc(-c3cccc(F)c3)cn2)C1 | Yes

Query block: Field: below-cutoff. Rule: recorded IC50 strictly less than 20 nM. Subject: C[C@H]1OC(=O)[C@@H]2C[C@@H]3CN(C)CC[C@H]3[C@H](/C=C/c3ccc(-c4cccc(C(F)(F)F)c4)cn3)[C@H]12
Result block: No

Query block: Field: below-cutoff. Rule: recorded IC50 strictly less than 20 nM. Subject: C[C@H]1OC(=O)[C@@H]2C[C@@H]3C[S+]([O-])CC[C@H]3[C@H](/C=C/c3ccc(-c4cccc(C(F)(F)F)c4)cn3)[C@H]12 (stereo in doubt)
Result block: No
